system_name: TARP γ8 dependent AMPA receptor (GluA1o-g8 fusion channel) (Homo sapiens (Human), UniProt P42261+Q8WXS5)
Sequence (P42261 other isoform, or with tags, fused parts or gaps): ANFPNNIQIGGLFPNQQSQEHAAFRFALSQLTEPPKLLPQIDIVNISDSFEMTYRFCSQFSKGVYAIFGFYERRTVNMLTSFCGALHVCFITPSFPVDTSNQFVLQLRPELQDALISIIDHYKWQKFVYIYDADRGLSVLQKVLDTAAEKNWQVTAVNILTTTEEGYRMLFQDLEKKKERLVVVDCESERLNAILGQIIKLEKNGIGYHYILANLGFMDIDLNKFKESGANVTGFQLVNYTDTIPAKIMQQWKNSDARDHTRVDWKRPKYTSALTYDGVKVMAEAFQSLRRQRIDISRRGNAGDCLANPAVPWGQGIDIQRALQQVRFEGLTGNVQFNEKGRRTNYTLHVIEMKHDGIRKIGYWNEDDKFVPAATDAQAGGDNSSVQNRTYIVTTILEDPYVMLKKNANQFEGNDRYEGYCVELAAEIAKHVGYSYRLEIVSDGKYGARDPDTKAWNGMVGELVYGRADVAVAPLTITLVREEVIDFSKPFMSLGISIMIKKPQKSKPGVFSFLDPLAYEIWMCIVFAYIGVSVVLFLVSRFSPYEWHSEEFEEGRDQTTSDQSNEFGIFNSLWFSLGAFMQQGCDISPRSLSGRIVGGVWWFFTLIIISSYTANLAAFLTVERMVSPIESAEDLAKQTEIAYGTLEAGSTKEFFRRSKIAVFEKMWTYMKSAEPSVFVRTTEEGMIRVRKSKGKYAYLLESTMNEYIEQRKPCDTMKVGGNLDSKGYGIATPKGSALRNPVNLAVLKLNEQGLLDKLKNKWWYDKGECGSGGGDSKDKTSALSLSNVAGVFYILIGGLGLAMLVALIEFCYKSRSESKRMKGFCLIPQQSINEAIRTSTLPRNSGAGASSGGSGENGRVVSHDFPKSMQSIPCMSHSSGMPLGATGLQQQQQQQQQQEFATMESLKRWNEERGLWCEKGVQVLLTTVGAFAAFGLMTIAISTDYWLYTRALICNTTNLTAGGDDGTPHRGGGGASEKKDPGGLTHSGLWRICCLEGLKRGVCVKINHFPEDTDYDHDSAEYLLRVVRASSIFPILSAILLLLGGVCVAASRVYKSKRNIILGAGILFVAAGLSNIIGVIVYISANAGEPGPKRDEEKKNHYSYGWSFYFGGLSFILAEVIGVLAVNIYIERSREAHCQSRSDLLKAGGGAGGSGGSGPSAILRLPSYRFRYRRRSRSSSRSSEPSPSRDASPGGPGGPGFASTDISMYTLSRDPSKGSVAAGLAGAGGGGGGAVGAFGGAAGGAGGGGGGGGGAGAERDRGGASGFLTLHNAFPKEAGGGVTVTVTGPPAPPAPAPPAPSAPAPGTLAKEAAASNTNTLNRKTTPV
protocol_text: Calcium flux assay (FLIPR), HEK293 cells expressing GRIA1o-CACNG8 fusion
Type: cell-based
applied_conditions: inhibition of calcium flux after 15 μM glutamate, read-out: GluR1-γ8 pIC50 (converted)
experimental_endpoint: IC50 (nM)
Report only the number, with the unit nM understood.

Here's what some known entries look like.
>>> experimental_value("Cc1c(CN2CC[C@H](O)[C@H](F)C2)cccc1-c1ccc2[nH]c(=O)[nH]c2c1 (stereo in doubt)")
6310
>>> experimental_value("O=Cc1cccc(F)c1-c1ccc2[nH]c(=O)[nH]c2c1")
1580
>>> experimental_value("O=c1[nH]c2ccc(-c3c(F)cccc3Cl)cc2[nH]1")
251
>>> experimental_value("O=c1[nH]c2ccc(-c3c(Cl)cccc3-c3cccnc3)cc2[nH]1")
126
>>> experimental_value("N#Cc1c(Br)cccc1-c1ccc2[nH]c(=O)[nH]c2c1")
631
>>> experimental_value("CC(C)(C)OC(=O)N1CCN(c2ccccc2-c2ccc3[nH]c(=O)[nH]c3c2)CC1")
794
>>> experimental_value("O=c1[nH]c2ccc(-c3c(Cl)ccc(-c4nnco4)c3Cl)cc2[nH]1")
631
>>> experimental_value("O=c1[nH]c2ccc(-c3c(F)cccc3OCc3ccccc3)cc2[nH]1")
100
>>> experimental_value("O=c1[nH]c2ccc(-c3ccc(OC(F)(F)F)cc3Cl)cc2[nH]1")
1580
>>> experimental_value("Cn1cc(-c2cccc(-c3ccc4[nH]c(=O)sc4c3)c2Cl)cn1")
200

IC50 recorded for this molecule, Cc1cc(Cl)cc(C)c1-c1ccc2[nH]c(=O)[nH]c2c1 , is 794

###

Measured IC50, listed per entry for reference.
system_name: TARP γ8 dependent AMPA receptor (GluA1o-g8 fusion channel) (Homo sapiens (Human), UniProt P42261+Q8WXS5)
protocol_text: Calcium flux assay (FLIPR), HEK293 cells expressing GRIA1o-CACNG8 fusion
Format: cell-based
applied_conditions: inhibition of calcium flux after 15 μM glutamate, read-out: GluR1-γ8 pIC50 (converted)
Report only the number, with the unit nM understood.

Here's what some known entries look like.
>>> experimental_value("O=c1[nH]c2ccc(-c3c(OCC4CC4)cccc3OC(F)(F)F)cc2[nH]1 [Example 89]")
3.98
>>> experimental_value("Cc1cccc(-c2ccccc2F)c1-c1ccc2[nH]c(=O)[nH]c2c1 [Example 180]")
316
>>> experimental_value("N#CC1(c2cccc(Cl)c2-c2ccc3[nH]c(=O)[nH]c3c2)CC1 [Example 128]")
398

IC50 recorded for this compound, N#Cc1c(-c2ccc3[nH]c(=O)[nH]c3c2)cccc1C(F)(F)F [Example 65] , is 1260

IC50 recorded for this compound, Cc1c(CN2CCOCC2)cccc1-c1ccc2[nH]c(=O)[nH]c2c1 [Example 148] , is 2000

IC50 recorded for this compound, O=c1[nH]c2ccc(-c3c(Cl)cccc3Cl)cc2[nH]1 [Example 49] , is 63.1

IC50 recorded for this compound, O=c1[nH]c2ccc(-c3cccc(Cl)c3C(F)(F)F)cc2[nH]1 [Example 34] , is 251

IC50 recorded for this compound, O=c1[nH]c2ccc(-c3c(Cl)cccc3NCc3ccoc3)cc2[nH]1 [Example 87] , is 126

IC50 recorded for this compound, COC(=O)c1cccc(-c2ccc3[nH]c(=O)[nH]c3c2)c1Cl [Example 43] , is 31.6
